experimental_system: glucagon receptor (GCGR), primary cAMP assay cell line (human, UniProt P47871 26-477)
Sequence (P47871 26-477): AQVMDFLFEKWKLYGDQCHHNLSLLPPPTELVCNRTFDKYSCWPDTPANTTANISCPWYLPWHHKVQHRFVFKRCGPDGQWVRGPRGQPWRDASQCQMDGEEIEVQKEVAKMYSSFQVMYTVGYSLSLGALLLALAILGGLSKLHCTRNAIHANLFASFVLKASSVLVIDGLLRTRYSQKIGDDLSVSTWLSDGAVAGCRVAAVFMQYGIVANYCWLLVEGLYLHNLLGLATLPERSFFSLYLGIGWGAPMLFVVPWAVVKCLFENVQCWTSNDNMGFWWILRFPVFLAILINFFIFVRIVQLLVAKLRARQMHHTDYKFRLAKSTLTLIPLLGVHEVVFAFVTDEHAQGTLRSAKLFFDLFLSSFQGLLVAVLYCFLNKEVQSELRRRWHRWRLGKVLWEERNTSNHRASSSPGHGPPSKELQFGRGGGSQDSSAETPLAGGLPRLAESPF
measurement_notes: cell-based or functional assay
Starred links: 1 amine or outer side, 2 acyl side, 3 side chain; linkers in the order of their positions; H or OH if unused. Non-standard residues stand in square brackets, D forms with d. Groups on a side chain read outwards from the residue. Primed or numbered codes have the meaning given here. No end group written: not given here. *: point of attachment. γGlu = O=C(O)[C@H](CCC(=O)[*:2])N[*:1]; αMeF = C[C@](N)(Cc1ccccc1)C(=O)O; αMeK = C[C@](N)(CCCCN)C(=O)O; Lauroyl = CCCCCCCCCCCC(=O)*; αMeS = C[C@](N)(CO)C(=O)O; PEG2′ = not defined here; Aib = CC(C)(N)C(=O)O
assay_readout: cAMP Primary assay EC50, n2 (nM)

| binder | cAMP Primary assay EC50, n2 (nM) |
| --- | --- |
| H[Aib]EGS[αMeF]TSDV[αMeS]SYK([PEG2′-PEG2′-γGlu-Lauroyl])EGEAA[αMeK]K([PEG2′-PEG2′-γGlu-Lauroyl])FIAK([PEG2′-PEG2′-γGlu-Lauroyl])VVEGG-NH2 [SEQ ID NO: 470] | 20 |
| H[Aib]EGS[αMeF]TSDV[αMeS]SYK([PEG2′-PEG2′-γGlu-Lauroyl])EGEK([PEG2′-PEG2′-γGlu-Lauroyl])A[αMeK]EFIAK([PEG2′-PEG2′-γGlu-Lauroyl])VVEGG-NH2 [SEQ ID NO: 469] | 19.8 |
| H[Aib]EGS[αMeF]TSDV[αMeS]SYK([PEG2′-PEG2′-γGlu-Lauroyl])EGEAA[αMeK]K([PEG2′-PEG2′-γGlu-Lauroyl])FIK([PEG2′-PEG2′-γGlu-Lauroyl])FVVEGG-NH2 [SEQ ID NO: 454] | 19.7 |
| H[Aib]EGS[αMeF]TSDV[αMeS]SK([PEG2′-PEG2′-γGlu-Lauroyl])LEGEAA[αMeK]K([PEG2′-PEG2′-γGlu-Lauroyl])FIAFK([PEG2′-PEG2′-γGlu-Lauroyl])VEGG-NH2 [SEQ ID NO: 482] | 20 |
| H[Aib]EGS[αMeF]TSDVSK([PEG2′-PEG2′-γGlu-Lauroyl])YLEGEK([PEG2′-PEG2′-γGlu-Lauroyl])A[αMeK]EFIK([PEG2′-PEG2′-γGlu-Lauroyl])FVVEGG-NH2 [SEQ ID NO: 445] | 19.5 |
| H[Aib]EGS[αMeF]TSDK([PEG2′-PEG2′-γGlu-Lauroyl])SSYLEGEK([PEG2′-PEG2′-γGlu-Lauroyl])A[αMeK]EFIAK([PEG2′-PEG2′-γGlu-Lauroyl])VVEGG-NH2 [SEQ ID NO: 457] | 19.8 |

Measured values drawn from patent US20200079833A1 for this set.
